tested on: HMLE_sh_eGFP viability, CellTiter-Glo luminescence, 72 h; experiment: cytotoxicity in HMLE control line with eGFP shRNA, dose response, counter-screen for HMLE_sh_ECad selective toxicity project, cell-based, HMLE_sh_eGFP, luminescence (AID 463074);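 also: counterscreen control line to flag general toxicity for the HMLE_sh_ECad screen; potency for loss of viability as luminescence drops below DMSO wells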
Calls of active or inactive are those of the source.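 The calls were made as follows: active = AC50 no more than tenfold above the top dose tested, or full inhibition at every dose with a flat fit (cut at about 19 µM in these data); inconclusive = flat curve fit with inhibition between 30% and 70%, or poor fit; inactive = AC50 more than tenfold above the top dose tested.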
property: AC50

# compound, experimental result
records = [
    ("CC(=O)[C@@]1(O)C(C)CC2C3C=C(C)C4=Cc5c(cnn5-c5ccccc5)C[C@]4(C)C3C(O)C[C@@]21C (stereo not given in full)", "4030 nM"),
    ("Oc1ccc(N=Nc2c(O)ccc3ccccc23)cc1", "5360 nM"),
    ("CCc1c(C2(O)CCCCC2)[nH]c2c(C(=O)OC)cc(Cl)cc12", "2690 nM"),
    ("COc1ccc(-c2noc3c2-c2nc(-c4ccccc4C)sc2CC3)cc1", "1030 nM"),
    ("COc1cc(N/N=C(\\C)c2ccc(O)c(C)c2)nc(-c2ccccc2)n1", "4750 nM"),
    ("Cc1cc(N)n(-c2ccc(S(N)(=O)=O)cc2[N+](=O)[O-])n1", "> 19500 nM (inactive)"),
    ("CC(/C=N/n1c(C2CCCCC2)n[nH]c1=S)=C\\c1ccccc1", "4880 nM"),
    ("Fc1cccc(-n2c(-c3cccs3)nc3nc4ccccc4nc32)c1", "2320 nM"),
    ("CCOC(=O)c1ccc(NC(=O)c2nc[nH]c2C(=O)NCCNC(=O)c2[nH]cnc2C(=O)Nc2ccc(C(=O)OCC)cc2)cc1", "624 nM"),
    ("COc1ccc(/C=N/NC(=O)CCn2cnc(-c3ccccc3)c2-c2ccccc2)cc1OC", "922 nM"),
]

* * *

system: HMLE_sh_eGFP viability, CellTiter-Glo luminescence, 72 h; assay: cytotoxicity in HMLE control line with eGFP shRNA, dose response, counter-screen for HMLE_sh_ECad selective toxicity project, cell-based, HMLE_sh_eGFP, luminescence (AID 463074);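 also: counterscreen control line to flag general toxicity for the HMLE_sh_ECad screen; potency for loss of viability as luminescence drops below DMSO wells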
Quick reference for AC50 among some compounds

# compound, experimental target, AC50
rows = [
    ("COc1cc(Nc2nc(-c3ccccc3)c3cc(C)ccc3n2)cc(OC)c1OC", "HMLE_sh_eGFP viability, CellTiter-Glo luminescence, 72 h", "5.17 µM"),
    ("O=C(CCSc1nc2ccccc2s1)N/N=C/c1c(O)ccc2ccccc12", "HMLE_sh_eGFP viability, CellTiter-Glo luminescence, 72 h", "16.2 µM"),
    ("O=C(NNC1=C(C(=O)C(F)(F)F)CCC1)c1ccc(Br)cc1", "HMLE_sh_eGFP viability, CellTiter-Glo luminescence, 72 h", "3.6 µM"),
    ("Cn1cccc1-c1nc2ccccc2n1Cc1ccccc1", "HMLE_sh_eGFP viability, CellTiter-Glo luminescence, 72 h", "13.6 µM"),
    ("Cc1cccc(N2CCN(C(=O)c3cc4n(n3)C(C(F)(F)F)CC(c3ccco3)N4)CC2)c1C (stereo not given)", "HMLE_sh_eGFP viability, CellTiter-Glo luminescence, 72 h", "9.71 µM"),
    ("COc1ccc(C(=O)c2ccc3oc(-c4ccc(OC)cc4)c(-c4ccc(O)cc4)c3c2)cc1", "HMLE_sh_eGFP viability, CellTiter-Glo luminescence, 72 h", "3.87 µM"),
    ("CC(C)(C)c1ccc(Cn2nnc3c(=O)[nH]c(C4CCCN(C(=O)c5cccs5)C4)nc32)cc1 (stereo not given)", "HMLE_sh_eGFP viability, CellTiter-Glo luminescence, 72 h", "14.6 µM"),
    ("Cc1ccc(C)c(NC(=O)c2ccccc2NS(=O)(=O)c2cc([N+](=O)[O-])ccc2C)c1", "HMLE_sh_eGFP viability, CellTiter-Glo luminescence, 72 h", "4.27 µM"),
    ("Nc1ncnc2c1c(-c1ccc(Oc3ccccc3)cc1)cn2C1CCCC1", "HMLE_sh_eGFP viability, CellTiter-Glo luminescence, 72 h", "1.7 µM"),
    ("CN(C(=S)Nc1ccc(SC(F)F)cc1)C(c1ccccc1)c1ccccc1", "HMLE_sh_eGFP viability, CellTiter-Glo luminescence, 72 h", "5.58 µM"),
]

Origin of the recorded values: PubChem BioAssay AID463074
